pKi values for the compounds below.
target: Vasopressin V2 receptor (Homo sapiens, UniProt P30518); assay: Displacement of [3H]AVP from human vasopressin V2 receptor expressed in CHO cells; format: cell-based; conditions: read-out: Ki
Sequence (P30518 whole entry): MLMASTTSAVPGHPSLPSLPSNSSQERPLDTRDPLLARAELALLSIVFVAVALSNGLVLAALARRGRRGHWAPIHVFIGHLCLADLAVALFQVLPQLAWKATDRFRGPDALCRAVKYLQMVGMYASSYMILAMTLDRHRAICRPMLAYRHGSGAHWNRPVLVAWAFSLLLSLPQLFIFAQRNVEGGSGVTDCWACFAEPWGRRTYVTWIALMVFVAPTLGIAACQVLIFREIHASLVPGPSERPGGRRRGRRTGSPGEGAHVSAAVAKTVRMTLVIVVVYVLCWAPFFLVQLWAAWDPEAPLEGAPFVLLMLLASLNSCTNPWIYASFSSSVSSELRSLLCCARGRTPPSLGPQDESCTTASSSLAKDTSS
Note: pKi values are expressed as the negative base-10 logarithm of concentration in M.

Reference set, count: 5
>  <given smiles>
O=C(Nc1ccc(C(=O)N2CCCCc3ccccc32)cc1)c1ccccc1-c1ccccc1

>  <pKi>
9.24

$$$$
>  <given smiles>
Cc1ccn(-c2ccc(C(=O)N3Cc4cccn4Cc4ccccc43)c(Cl)c2)n1

>  <pKi>
7.30

$$$$
>  <given smiles>
Cc1ccn(-c2ccc(C(=O)N3Cc4cnn(C)c4Nc4ccccc43)c(Cl)c2)n1

>  <pKi>
7.54

$$$$
>  <given smiles>
Cc1cc(C(=O)N2Cc3cccn3Cc3ccccc32)ccc1CNC(=O)N1CCC[C@H]1C(=S)N1CCCN(C)CC1

>  <pKi>
5.47

$$$$
>  <given smiles>
Cc1cc(C(=O)N2Cc3cnn(C)c3Nc3ccccc32)ccc1NC(=O)c1ccccc1-c1ccccc1

>  <pKi>
8.19

$$$$

Field: next compound
Query: Identify pKi associated with the compound Cc1ccn(-c2ccc(C(=O)N3Cc4cnn(C)c4Nc4ccccc43)cc2C)n1
Result: 6.04

The values you see were collected from ChEMBL document CHEMBL1156912.
